Taken from patent EP4752152A1.

Test system: Fatty Acid Synthase (FASN) gene
Assay name: Inhibition of FASN gene expression (qPCR) in Huh-7 cells
Assay type: cell-based, human
Study conditions: Homo sapiens; Huh-7 cells, starvation medium, 16 hours, qPCR; class symbols; read-out: FASN IC50
Assay endpoint: IC50

C[C@H](CCCC(O)c1ccc(F)nc1OC1CC1)[C@H]1CC[C@H]2[C@H]3[C@H](CC[C@]12C)[C@@]1(C)CC[C@H](O)C[C@@H]1CC3(F)F (stereo partly shown) : < 200 nM

----------
Let's look at some molecules and their measured half-life at 1 µM.
Assay name: Metabolic stability experiment of mouse liver microsomes
Assay type: in vitro ADME
Assay endpoint: half-life at 1 µM

C[C@H](CCCC(O)c1cccc2c1OC(F)(F)O2)[C@H]1CC[C@H]2[C@H]3[C@H](CC[C@]12C)[C@@]1(C)CC[C@H](O)[C@H](O)[C@@H]1CC3(F)F (stereo partly drawn) : > 185 min
COc1cc(F)ccc1[C@@H](O)CCC[C@@H](C)[C@H]1CC[C@H]2[C@H]3[C@H](CC[C@]12C)[C@@]1(C)CC[C@H](O)[C@H](O)[C@@H]1CC3(F)F : 321 min
COc1cc(F)ccc1C(O)CCC[C@@H](C)[C@H]1CC[C@H]2C3=C(F)C[C@H]4[C@@H](O)[C@@H](O)CC[C@]4(C)[C@H]3CC[C@]12C (stereo partly drawn) : > 186 min

----------
Assay name: Metabolic stability experiment of mouse liver microsomes
Format: in vitro ADME
Experimental: PB solution (100 mM), MgCl2 solution (300 mM), NADPH solution (2.04 mM), and mouse liver microsome (SHQY catalog number: M1000, batch number: 2110330) solution (1.00 mg/mL) were prepared respectively. […] Then, 100 µL of mouse liver microsome solution was added to a 96-well sample plate. […] The supernatant was aspirated, diluted with deionized water at the corresponding ratio, and analyzed by LC-MS/MS. […] The half-life (T1/2) of the compound was then calculated using Excel. […]
Let's look at some molecules and their measured half-life at 1 µM.
Assay endpoint: half-life at 1 µM (min)

COc1cccc(F)c1C(O)CCC[C@@H](C)[C@H]1CC[C@H]2[C@@H]3CC[C@H]4[C@@H](O)[C@@H](O)CC[C@]4(C)[C@H]3CC[C@]12C (some centres unmarked) : 29.9
COc1cccc(F)c1[C@@H](O)CCC[C@@H](C)[C@H]1CC[C@H]2[C@H]3[C@H](CC[C@]12C)[C@@]1(C)CC[C@H](O)[C@H](O)[C@@H]1CC3(F)F : 112
COc1ncccc1C(O)CCC[C@@H](C)[C@H]1CC[C@H]2[C@H]3[C@H](CC[C@]12C)[C@@]1(C)CC[C@H](O)[C@H](O)[C@@H]1CC3(F)F (some centres unmarked) : 115
C[C@H](CCCC(O)c1ccccc1F)[C@H]1CC[C@H]2[C@H]3[C@H](CC[C@]12C)[C@@]1(C)CC[C@H](O)C(=O)[C@@H]1CC3(F)F (some centres unmarked) : 49.1

----------
Let's look at some compounds and their measured solubility at 1 h.
Assay name: Solubility in fasted-state simulated intestinal fluid (FaSSIF)
Format: physicochemical
Study conditions: FaSSIF, pH 6.5, fassif, kinetic from dmso stock, FaSSIF pH 6.5, 300 µM sample solution, room temperature
Assay endpoint: solubility at 1 h (µM)

COc1cccc(F)c1C(O)CC[C@@H](C)[C@H]1CC[C@H]2[C@H]3[C@H](CC[C@]12C)[C@@]1(C)CC[C@H](O)[C@H](O)[C@@H]1CC3(F)F (stereo partly shown) [Compound 333] : 148
C[C@H](CCCC(O)c1ccc2c(n1)OC(F)(F)O2)[C@H]1CC[C@H]2[C@H]3[C@H](CC[C@]12C)[C@@]1(C)CC[C@H](O)[C@H](O)[C@@H]1CC3(F)F (single isomer, unassigned) [Compound 265] : 107
COc1cc(F)ccc1C(O)CCC[C@@H](C)[C@H]1CC[C@H]2[C@H]3[C@H](CC[C@]12C)[C@@]1(C)CC[C@H](O)[C@H](O)[C@@H]1CC3(F)F (stereo partly shown) [Compound 35] : 160
C[C@H](CCCC(O)c1ccccc1OC(F)(F)F)[C@H]1CC[C@H]2[C@H]3[C@H](CC[C@]12C)[C@@]1(C)CC[C@H](O)[C@H](O)[C@@H]1CC3(F)F (stereo partly shown) [Compound 1] : 140
COc1cc(F)c([C@H](O)CCC[C@@H](C)[C@H]2CC[C@H]3[C@H]4[C@H](CC[C@]23C)[C@@]2(C)CC[C@H](O)[C@H](O)[C@@H]2CC4(F)F)c(F)n1 (single isomer, unassigned) [Compound 240] : 146
COc1cccc(F)c1[C@@H](O)CCC[C@@H](C)[C@H]1CC[C@H]2[C@H]3[C@H](CC[C@]12C)[C@@]1(C)CC[C@H](O)[C@H](O)[C@@H]1CC3(F)F [Compound 127] : 209
COc1nc(F)ccc1[C@@H](O)CC[C@@H](C)[C@H]1CC[C@H]2[C@H]3[C@H](CC[C@]12C)[C@@]1(C)CC[C@H](O)[C@H](O)[C@@H]1CC3(F)F [Compound 337] : 246
COc1ccccc1C(O)CCC[C@@H](C)[C@H]1CC[C@H]2[C@H]3[C@H](CC[C@]12C)[C@@]1(C)CC[C@H](O)[C@H](O)[C@@H]1CC3(F)F (stereo partly shown) [Compound 37] : 207
COc1cc(F)nc(F)c1[C@@H](O)CCC[C@@H](C)[C@H]1CC[C@H]2[C@H]3[C@H](CC[C@]12C)[C@@]1(C)CC[C@H](O)[C@H](O)[C@@H]1CC3(F)F (single isomer, unassigned) [Compound 234] : 49.3
COc1cc(F)ccc1[C@H](O)CCC[C@@H](C)[C@H]1CC[C@H]2[C@H]3[C@H](CC[C@]12C)[C@@]1(C)CC[C@H](O)[C@H](O)[C@@H]1CC3(F)F [Compound 141] : 150
